What IC50 was measured for each of the following?
assayed system: Androgen receptor (Homo sapiens)
Sequence (P10275 whole entry): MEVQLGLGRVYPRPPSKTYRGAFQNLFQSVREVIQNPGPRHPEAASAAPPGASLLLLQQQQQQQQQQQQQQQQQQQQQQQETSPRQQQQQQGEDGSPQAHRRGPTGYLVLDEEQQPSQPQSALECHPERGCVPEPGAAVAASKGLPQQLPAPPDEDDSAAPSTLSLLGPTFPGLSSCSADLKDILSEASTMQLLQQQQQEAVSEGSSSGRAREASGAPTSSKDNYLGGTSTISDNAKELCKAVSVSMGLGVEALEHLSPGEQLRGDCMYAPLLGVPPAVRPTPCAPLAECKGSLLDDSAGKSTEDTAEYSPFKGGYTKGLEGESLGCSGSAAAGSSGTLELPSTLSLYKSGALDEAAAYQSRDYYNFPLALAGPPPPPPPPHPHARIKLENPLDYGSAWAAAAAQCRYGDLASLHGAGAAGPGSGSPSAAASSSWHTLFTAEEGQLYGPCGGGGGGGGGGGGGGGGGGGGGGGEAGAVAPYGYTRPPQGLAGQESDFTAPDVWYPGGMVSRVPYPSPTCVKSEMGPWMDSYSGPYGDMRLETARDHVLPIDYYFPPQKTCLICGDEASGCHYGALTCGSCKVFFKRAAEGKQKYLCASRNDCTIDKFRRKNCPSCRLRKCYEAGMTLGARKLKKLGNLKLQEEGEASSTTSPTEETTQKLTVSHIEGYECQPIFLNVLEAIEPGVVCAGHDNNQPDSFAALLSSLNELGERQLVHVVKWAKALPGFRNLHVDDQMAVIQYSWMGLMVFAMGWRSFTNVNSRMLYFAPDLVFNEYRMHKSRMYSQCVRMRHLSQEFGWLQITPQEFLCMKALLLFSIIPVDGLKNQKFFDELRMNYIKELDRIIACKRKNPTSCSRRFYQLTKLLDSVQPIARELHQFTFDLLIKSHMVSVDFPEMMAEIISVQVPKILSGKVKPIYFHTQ
Entry rule: numbers only, all in nM.

Consider the molecule "C[C@]12CCC(=O)C=C1C[C@@H](CCCc1cccc(OCCCC(=O)O)c1)[C@@H]1[C@@H]2CC[C@@]2(C)[C@H]1CC[C@]2(C)O" and give its recorded IC50.
5800

Consider the molecule "C[C@]12CCC(=O)C=C1C[C@@H](CCCCc1cccc(OCCCC(=O)O)c1)[C@@H]1[C@@H]2CC[C@@]2(C)[C@H]1CC[C@]2(C)O" and give its recorded IC50.
920

Consider the molecule "C[C@]12CCC(=O)C=C1C[C@@H](CCCCc1ccc(OCCCCCC(=O)O)cc1)[C@@H]1[C@@H]2CC[C@@]2(C)[C@H]1CC[C@]2(C)O" and give its recorded IC50.
420

Consider the molecule "C[C@]12CCC(=O)C=C1C[C@@H](CCCCc1ccc(OCCCCC(=O)O)cc1)[C@@H]1[C@@H]2CC[C@@]2(C)[C@H]1CC[C@]2(C)O" and give its recorded IC50.
250

Consider the molecule "C[C@]12CCC(=O)C=C1C[C@@H](CCCc1ccc(OCCCC(=O)O)cc1)[C@@H]1[C@@H]2CC[C@@]2(C)[C@H]1CC[C@]2(C)O" and give its recorded IC50.
660

====

What pIC50 was measured for each of the following?
assayed system: Androgen receptor (Homo sapiens, UniProt P10275)
measurement protocol: biochemical
Description: Displacement of [3H]mibolerone from human androgen receptor expressed in CHOK1 cells
Entry type: numeric. Quantity: pIC50, the -log10 of concentration in molar units.

Consider the compound "C[C@]12CCC(=O)C=C1C[C@@H](CCCCc1cccc(OCCCCC(=O)O)c1)[C@@H]1[C@@H]2CC[C@@]2(C)[C@H]1CC[C@]2(C)O" and give its recorded pIC50.
6.46

Consider the compound "C[C@]12CCC(=O)C=C1C[C@@H](CCCCCCCCCC(=O)O)[C@@H]1[C@@H]2CC[C@@]2(C)[C@H]1CC[C@]2(C)O" and give its recorded pIC50.
6.22

Consider the compound "C[C@]12CCC(=O)C[C@@H]1C[C@@H](CCCCCCCCCC(=O)O)[C@@H]1[C@@H]2CC[C@]2(C)[C@@H](O)CC[C@@H]12" and give its recorded pIC50.
6.46

Consider the compound "C[C@]12CCC(=O)C=C1C[C@@H](CCCc1ccc(OCCCCC(=O)O)cc1)[C@@H]1[C@@H]2CC[C@@]2(C)[C@H]1CC[C@]2(C)O" and give its recorded pIC50.
6.18

Consider the compound "C[C@]12CCC(=O)C=C1C[C@@H](CCCc1ccc(OCCC(=O)O)cc1)[C@@H]1[C@@H]2CC[C@@]2(C)[C@H]1CC[C@]2(C)O" and give its recorded pIC50.
6.52

Consider the compound "C[C@]12CCC(=O)C=C1C[C@@H](CCCCc1cccc(OCCCCCC(=O)O)c1)[C@@H]1[C@@H]2CC[C@@]2(C)[C@H]1CC[C@]2(C)O" and give its recorded pIC50.
6.92

Consider the compound "C[C@]12CCC(=O)C=C1C[C@@H](CCCCc1cccc(OCCCC(=O)O)c1)[C@@H]1[C@@H]2CC[C@@]2(C)[C@H]1CC[C@]2(C)O" and give its recorded pIC50.
6.17

Consider the compound "CN(C)C(=O)CCCCCCC[C@@H]1C[C@H]2CC(=O)CC[C@]2(C)[C@H]2CC[C@]3(C)[C@@H](O)CC[C@H]3[C@H]12" and give its recorded pIC50.
6.59

Consider the compound "C[C@]12CCC(=O)C=C1C[C@@H](CCCc1ccc(OCCCC(=O)O)cc1)[C@@H]1[C@@H]2CC[C@@]2(C)[C@H]1CC[C@]2(C)O" and give its recorded pIC50.
6.37

Consider the compound C[C@]12CCC(=O)C[C@@H]1C[C@@H](CCCCCCCCC(CCCC(F)(F)C(F)(F)F)C(=O)O)[C@@H]1[C@@H]2CC[C@]2(C)[C@@H](O)CC[C@@H]12 (some centres not stated) and give its recorded pIC50.
6.39

Consider the compound "C[C@]12CCC(=O)C[C@@H]1C[C@@H](CCCCCCCC(=O)O)[C@@H]1[C@@H]2CC[C@]2(C)[C@@H](O)CC[C@@H]12" and give its recorded pIC50.
6.18

Consider the compound "C[C@]12CCC(=O)C=C1C[C@@H](CCCCc1ccc(OCCCCC(=O)O)cc1)[C@@H]1[C@@H]2CC[C@@]2(C)[C@H]1CC[C@]2(C)O" and give its recorded pIC50.
7.02

====

What log10 FI5 was measured for each of the following?
assayed system: Androgen receptor (Homo sapiens) (UniProt P10275)
Sequence (whole entry): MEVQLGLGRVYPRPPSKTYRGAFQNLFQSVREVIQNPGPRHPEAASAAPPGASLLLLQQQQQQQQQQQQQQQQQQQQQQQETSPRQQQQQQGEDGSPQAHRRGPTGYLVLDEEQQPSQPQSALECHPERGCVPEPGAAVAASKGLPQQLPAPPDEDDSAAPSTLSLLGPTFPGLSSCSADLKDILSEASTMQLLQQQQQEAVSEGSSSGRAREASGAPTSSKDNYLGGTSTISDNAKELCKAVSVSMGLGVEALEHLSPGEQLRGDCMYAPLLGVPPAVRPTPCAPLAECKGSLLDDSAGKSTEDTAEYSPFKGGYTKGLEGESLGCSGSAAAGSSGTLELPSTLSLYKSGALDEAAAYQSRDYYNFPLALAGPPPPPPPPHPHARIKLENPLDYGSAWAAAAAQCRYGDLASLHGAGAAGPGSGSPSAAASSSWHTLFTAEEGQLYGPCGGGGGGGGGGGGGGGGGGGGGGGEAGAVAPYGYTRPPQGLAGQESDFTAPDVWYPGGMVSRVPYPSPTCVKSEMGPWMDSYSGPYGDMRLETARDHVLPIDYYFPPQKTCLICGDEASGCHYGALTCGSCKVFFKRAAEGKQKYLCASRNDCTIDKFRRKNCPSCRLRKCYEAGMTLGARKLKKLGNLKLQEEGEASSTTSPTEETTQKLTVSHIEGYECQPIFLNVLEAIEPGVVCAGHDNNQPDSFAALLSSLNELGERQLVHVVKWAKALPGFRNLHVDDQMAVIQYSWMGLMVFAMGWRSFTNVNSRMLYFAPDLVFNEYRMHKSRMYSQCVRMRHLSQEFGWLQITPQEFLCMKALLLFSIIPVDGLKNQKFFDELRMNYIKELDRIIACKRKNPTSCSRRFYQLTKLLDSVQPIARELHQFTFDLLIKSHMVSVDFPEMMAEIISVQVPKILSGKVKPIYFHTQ
condition parameters: HeLa
Description: Agonist activity at human androgen receptor expressed in HeLa cells assessed as five times increase in transcriptional activity by reporter gene assay
Friendly reminder: values = log10 of FI5, unit nM.

Consider the molecule "C[C@]12CCC(=O)C[C@@H]1C[C@@H](CCCCCCCC(=O)O)[C@@H]1[C@@H]2CC[C@]2(C)[C@@H](O)CC[C@@H]12" and give its recorded log10 FI5.
2.04

Consider the molecule "C[C@]12CCC(=O)C[C@@H]1C[C@@H](CCCCCCCCCC(=O)O)[C@@H]1[C@@H]2CC[C@]2(C)[C@@H](O)CC[C@@H]12" and give its recorded log10 FI5.
2.08

Consider the molecule C[C@]12CCC(=O)C[C@@H]1C[C@@H](CCCCCCCCC(CCCC(F)(F)C(F)(F)F)C(=O)O)[C@@H]1[C@@H]2CC[C@]2(C)[C@@H](O)CC[C@@H]12 (stereo partly specified) and give its recorded log10 FI5.
1.11

Consider the molecule CC(C)(O)C(=O)Nc1ccc([N+](=O)[O-])c(C(F)(F)F)c1 [HYDROXYFLUTAMIDE] and give its recorded log10 FI5.
3.00

Consider the molecule "C[C@]12CCC(=O)C=C1C[C@@H](CCCCc1ccc(OCCCCC(=O)O)cc1)[C@@H]1[C@@H]2CC[C@@]2(C)[C@H]1CC[C@]2(C)O" and give its recorded log10 FI5.
3.30

Consider the molecule "C[C@]12CCC(=O)C=C1C[C@@H](CCCCc1ccc(OCCCCCC(=O)O)cc1)[C@@H]1[C@@H]2CC[C@@]2(C)[C@H]1CC[C@]2(C)O" and give its recorded log10 FI5.
2.00

Consider the molecule "C[C@]12CCC(=O)C=C1C[C@@H](CCCc1ccc(OCCCCC(=O)O)cc1)[C@@H]1[C@@H]2CC[C@@]2(C)[C@H]1CC[C@]2(C)O" and give its recorded log10 FI5.
3.51

Consider the molecule "C[C@]12CCC(=O)C=C1C[C@@H](CCCCc1ccc(OCCCC(=O)O)cc1)[C@@H]1[C@@H]2CC[C@@]2(C)[C@H]1CC[C@]2(C)O" and give its recorded log10 FI5.
2.23

Consider the molecule "C[C@]12CCC(=O)C=C1C[C@@H](CCCc1cccc(OCCCC(=O)O)c1)[C@@H]1[C@@H]2CC[C@@]2(C)[C@H]1CC[C@]2(C)O" and give its recorded log10 FI5.
3.18

Consider the molecule "C[C@]12CCC(=O)C=C1C[C@@H](CCCc1ccc(OCCC(=O)O)cc1)[C@@H]1[C@@H]2CC[C@@]2(C)[C@H]1CC[C@]2(C)O" and give its recorded log10 FI5.
3.40
